- Tested on: HS 578T breast
- protocol: NCI tumour cell line growth inhibition, 48 h
I'd appreciate it if you could supply log10 of TGI values for the items below.
Form field - Quantity: TGI; Unit: µM; Scale: log10

Request: Any idea what log10 of TGI was measured for COC(=O)[C@@H]1c2c(oc3cc(CO)cc(O)c3c2=O)C=C[C@H]1O ?
Response: 1.75

Request: Any idea what log10 of TGI was measured for O=C1C(Cl)=C(Nc2ccc(S(=O)(=O)c3ccc(NC4=C(Cl)C(=O)c5ccccc5C4=O)cc3)cc2)C(=O)c2ccccc21 ?
Response: 0.77

Request: Any idea what log10 of TGI was measured for COc1cc(/C=C(\C)[N+](=O)[O-])cc(OC)c1 ?
Response: 1.84

Request: Any idea what log10 of TGI was measured for COC1C(OC(=O)c2ccc(C)[nH]2)C(O)C(Oc2ccc3c(O)c(NC(=O)c4ccc(O)c(CC=C(C)C)c4)c(=O)oc3c2Cl)OC1(C)C (centres undefined) ?
Response: 1.79

Request: Any idea what log10 of TGI was measured for CC(C)(C)N/N=C(/Cc1nc2c3c(ccc2[nH]c1=O)C(=O)c1ccccc1C3=O)C(=O)NC1=C(Cl)C(=O)c2ccccc2C1=O ?
Response: 1.90

Origin of measurements: PubChem BioAssay (NCI)
